Target: T1, GLP-1 receptor
T1 chain: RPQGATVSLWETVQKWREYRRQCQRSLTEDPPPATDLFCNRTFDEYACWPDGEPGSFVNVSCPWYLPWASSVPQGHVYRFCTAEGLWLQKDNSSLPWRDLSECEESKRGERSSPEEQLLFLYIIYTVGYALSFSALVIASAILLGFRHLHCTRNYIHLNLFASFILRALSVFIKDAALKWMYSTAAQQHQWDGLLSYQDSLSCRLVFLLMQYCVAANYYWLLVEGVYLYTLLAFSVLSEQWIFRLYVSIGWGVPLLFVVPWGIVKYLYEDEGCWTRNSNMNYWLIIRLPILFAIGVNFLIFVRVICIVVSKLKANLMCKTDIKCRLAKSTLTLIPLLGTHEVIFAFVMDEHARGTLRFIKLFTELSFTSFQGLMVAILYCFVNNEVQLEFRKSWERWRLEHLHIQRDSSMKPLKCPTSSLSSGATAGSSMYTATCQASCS
Assay: competition with 125I-GLP-1 on CHO/GLP-1R cells; polypeptide digested with thrombin and DPP IV first
For each record, write down the corresponding pIC50.
Recall that pIC50 is obtained by taking minus log10 of the concentration measured in molar.

# lookup: pIC50 of PDICLPRWGCLWEFNPRGPHAEGTFTSDVSSYLEGQAAKEFIAWLVKGRG (ABP-LK-GLP fusion polypeptide; also called ABP-LK-GLP) [DP3.2 fusion polypeptide] 8.64

And what about the binder PDICLPRWGCLWEFNPRGAHAEGTFTSDVSSYLEGQAAKEFIAWLVKGRG (ABP-LK-GLP fusion polypeptide; also called ABP-LK-GLP) [DP3.1 fusion polypeptide] ? 8.68

And what about the binder PNICLPRWGCLWDFNPRGAHAEGTFTSDVSSYLEGQAAKEFIAWLVKGRG (ABP-LK-GLP fusion polypeptide; also called ABP-LK-GLP) [DP4.1 fusion polypeptide] ? 8.60

And what about the binder DP8.3 fusion polypeptide (ABP-LK-GLP fusion polypeptide, copied as printed with PSS at the N-terminus (DP8.1 and DP8.2 have PS); also called ABP-LK-GLP) peptide: PSSLLHWTHKIPALFNPRGSHAEGTFTSDVSSYLEGQAAKEFIAWLVKGRG ? 8.60

And what about the binder PLPHSHRAHSLPPFNPRGAHAEGTFTSDVSSYLEGQAAKEFIAWLVKGRG (ABP-LK-GLP fusion polypeptide; also called ABP-LK-GLP) [DP6.1 fusion polypeptide] ? 8.70

And what about the binder NICLPRWGCLWDFNPRGSHAEGTFTSDVSSYLEGQAAKEFIAWLVKGRG (ABP-LK-GLP fusion polypeptide; also called ABP-LK-GLP) [M4.3 fusion polypeptide] ? 8.66
